# PROTOCOL NOTES: Rodent Pharmacokinetic Study
# TEST SETTINGS: male, Wistar, rat, whole blood, po, 3 mg/kg
OUTCOME MEASURE: Tmax (min)
# unit: min | format: bare number

// below: answered molecules
STRUCTURE NOTATION	VALUE UNIT	Tmax
O=C(CN1CCC(O)CC1)Nc1ccc(OC2CCN(C3CCC3)CC2)cc1	min	160
CC(=O)N(CCN1CCOCC1)c1ccc(OC2CCN(C3CCC3)CC2)cc1F	min	30

--- query ---
Param item = Cl.Cl.O=C(CN1CCOCC1)Nc1ccc(OC2CCN(C3CCC3)CC2)cc1F ; retrieve measured Tmax.
25.2

====

# PROTOCOL NOTES: Rodent Pharmacokinetic Study
# TEST SETTINGS: male, Wistar, rat, whole blood, po, 3 mg/kg
OUTCOME MEASURE: half-life (h)
# unit: h | format: bare number

Param item = Cl.Cl.O=C(CN1CCOCC1)Nc1ccc(OC2CCN(C3CCC3)CC2)cc1F [Example 3] ; retrieve measured half-life.
1.46

Param item = O=C(CN1CCC(O)CC1)Nc1ccc(OC2CCN(C3CCC3)CC2)cc1 [Example 19] ; retrieve measured half-life.
12.8

Param item = CC(=O)N(CCN1CCOCC1)c1ccc(OC2CCN(C3CCC3)CC2)cc1F [Example 37] ; retrieve measured half-life.
3.59

====

# TEST TARGET: Human or Rat Histamine H3 Receptor
# PROTOCOL NOTES: Binding assay for human or rat Histamine H3 receptor ([3H] R-α-methylhistamine displacement)
# TEST SETTINGS: radioligand [3H] R-α-methylhistamine 3.0 nM; receptor source rat brain frontal cortex or recombinant human cDNA in CHO cells (table does not say which)
Structures can show the parent of a compound that is named as a salt.
We begin with a simple list: items and their reported pKi.
Keep in mind that pKi stands for -log10 of concentration in molar terms.

COMPOUND	OUTCOME MEASURE	RECORDED VALUE
O=C(CN1CCCCC1)Nc1ccc(OC2CCN(C3CCCC3)CC2)cc1 [Example 27, dihydrochloride]	pKi	8.39
Cc1cc(OC2CCN(C3CCC3)CC2)ccc1NC(=O)CN1CCCCC1	pKi	8.48
CC(=O)N1CCN(CC(=O)Nc2ccc(OC3CCN(C4CCC4)CC3)cc2)CC1	pKi	8.27

Param item = CC(=O)N(CCN1CCOCC1)c1ccc(OC2CCN(C3CCC3)CC2)cc1F ; retrieve measured pKi.
8.01

Param item = CC(C)N1CCCN(CC(=O)Nc2ccc(OC3CCN(C4CCC4)CC3)cc2)CC1 ; retrieve measured pKi.
9.00

Param item = O=C(CN1CCCCC1)Nc1ccc(OC2CCN(C3CCC3)CC2)cc1 ; retrieve measured pKi.
8.80

====

# PROTOCOL NOTES: in vivo
# TEST SETTINGS: male, Wistar, rat, po, 3 mg/kg
OUTCOME MEASURE: Cmax (ng/mL)
# unit: ng/mL | format: bare number

Param item = Cl.Cl.O=C(CN1CCOCC1)Nc1ccc(OC2CCN(C3CCC3)CC2)cc1 [Example 1] ; retrieve measured Cmax.
349

====

# TEST TARGET: Human or Rat Histamine H3 Receptor
# PROTOCOL NOTES: Binding assay for human or rat Histamine H3 receptor ([3H] R-α-methylhistamine displacement)
# TEST SETTINGS: radioligand [3H] R-α-methylhistamine 3.0 nM; receptor source rat brain frontal cortex or recombinant human cDNA in CHO cells (table does not say which)
Structures can show the parent of a compound that is named as a salt.
OUTCOME MEASURE: Ki (nM)
# unit: nM | format: bare number

// below: answered molecules
MOLECULE	VALUE UNIT	Ki
CC(C)N1CCC(Oc2ccc(NC(=O)CN3CCOCC3)cc2)CC1	nM	8.3
Cc1cc(OC2CCN(C(C)C)CC2)ccc1NC(=O)CN1CCCC1	nM	8.4
O=C(CCN1CCOCC1)Nc1ccc(OC2CCN(C3CCC3)CC2)cc1	nM	6.7
CN(C(=O)CN1CCOCC1)c1ccc(OC2CCN(C3CCC3)CC2)cc1	nM	4.9

Param item = O=C(CNc1ccc(OC2CCN(C3CCC3)CC2)cc1)N1CCOCC1 [Example 2, hydrochloride] ; retrieve measured Ki.
6.4

Param item = O=C(CN1CCCCC1)Nc1ccc(OC2CCN(C3CCC3)CC2)cc1C(F)(F)F ; retrieve measured Ki.
14.8

Param item = O=C(CN1CCCC1)Nc1ccc(OC2CCN(C3CCC3)CC2)cc1 ; retrieve measured Ki.
1.1

Param item = O=C(CN1CCC(O)CC1)Nc1ccc(OC2CCN(C3CCC3)CC2)cc1 ; retrieve measured Ki.
6.4

Param item = Cl.Cl.O=C(CN1CCOCC1)Nc1ccc(OC2CCN(C3CCC3)CC2)cc1F [Example 3, dihydrochloride] ; retrieve measured Ki.
14.9

====

# PROTOCOL NOTES: Rodent Pharmacokinetic Study
# TEST SETTINGS: male, Wistar, rat, whole blood, po, 3 mg/kg
OUTCOME MEASURE: Cmax (ng/mL)
# unit: ng/mL | format: bare number

STRUCTURE NOTATION	VALUE UNIT	RECORDED VALUE
O=C(CN1CCC(O)CC1)Nc1ccc(OC2CCN(C3CCC3)CC2)cc1	ng/mL	67
CC(C)N1CCC(Oc2ccc(NC(=O)CN3CCOCC3)cc2)CC1	ng/mL	376
Cl.Cl.O=C(CN1CCOCC1)Nc1ccc(OC2CCN(C3CCC3)CC2)cc1F	ng/mL	129

Param item = CC(=O)N(CCN1CCOCC1)c1ccc(OC2CCN(C3CCC3)CC2)cc1F ; retrieve measured Cmax.
27

====

# TEST TARGET: Human or Rat Histamine H3 Receptor
# PROTOCOL NOTES: Binding assay for human or rat Histamine H3 receptor ([3H] R-α-methylhistamine displacement)
# TEST SETTINGS: radioligand [3H] R-α-methylhistamine 3.0 nM; receptor source rat brain frontal cortex or recombinant human cDNA in CHO cells (table does not say which)
Counter-ions that a name gives are not always drawn.
OUTCOME MEASURE: Ki (nM)
# unit: nM | format: bare number

// below: answered molecules
MOLECULE	TEST TARGET	Ki, nM
O=C(CN1CCCC1)Nc1ccc(OC2CCN(C3CCCC3)CC2)cc1 [Example 28, dihydrochloride]	Human or Rat Histamine H3 Receptor	3.8
Cc1cc(OC2CCN(C3CCCC3)CC2)ccc1NC(=O)CN1CCC[C@H]1C	Human or Rat Histamine H3 Receptor	4
CC(=O)N(CCN1CCOCC1)c1ccc(OC2CCN(C3CC3)CC2)cc1	Human or Rat Histamine H3 Receptor	6.6

--- query ---
Param item = Cc1cc(OC2CCN(C3CCC3)CC2)ccc1NC(=O)CN1CCCC1 ; retrieve measured Ki.
1.9

====

# PROTOCOL NOTES: Rodent Pharmacokinetic Study
# TEST SETTINGS: male, Wistar, rat, whole blood, iv, 5 mg/kg
OUTCOME MEASURE: AUC(0-t) (ng·h/mL)
# unit: ng·h/mL | format: bare number

Param item = Cc1cc(OC2CCN(C3CCC3)CC2)ccc1NC(=O)CN1CCCC1 [Example 11] ; retrieve measured AUC(0-t).
3340

====

# PROTOCOL NOTES: Rodent Pharmacokinetic Study
# TEST SETTINGS: male, Wistar, rat, whole blood, po, 10 mg/kg
OUTCOME MEASURE: bioavailability (%)
# unit: % | format: bare number

Param item = Cc1cc(OC2CCN(C3CCC3)CC2)ccc1NC(=O)CN1CCCC1 [Example 11] ; retrieve measured bioavailability.
20

====

# Tested on: rats
# PROTOCOL NOTES: Inhibition of Food Intake
# Type: in vivo
# TEST SETTINGS: rats fasted 18 hours, oral treatment 60 minutes before feed, active dose

COMPOUND	Inhibition of food intake
CC(C)N1CCC(Oc2ccc(NC(=O)CN3CCOCC3)cc2)CC1 [Example 22]	60 mg/kg, p.o.
Cc1cc(OC2CCN(C3CCC3)CC2)ccc1NC(=O)CN1CCC[C@H]1C [Example 16]	≧30 mg/kg, p.o.
Cc1cc(OC2CCN(C3CCC3)CC2)ccc1NC(=O)CN1CCCCC1 [Example 13]	30 mg/kg, p.o.
O=C(CN1CCCC1)Nc1ccc(OC2CCN(C3CCC3)CC2)cc1 [Example 21]	≧30 mg/kg, p.o.

====

# PROTOCOL NOTES: Rodent Pharmacokinetic Study
# TEST SETTINGS: male, Wistar, rat, whole blood, po, 10 mg/kg
OUTCOME MEASURE: AUC(0-t) (ng·h/mL)
# unit: ng·h/mL | format: bare number

Param item = Cc1cc(OC2CCN(C3CCC3)CC2)ccc1NC(=O)CN1CCCC1 ; retrieve measured AUC(0-t).
1350

====

# PROTOCOL NOTES: Rodent Pharmacokinetic Study
# TEST SETTINGS: male, Wistar, rat, whole blood, iv, 1 mg/kg
OUTCOME MEASURE: half-life (h)
# unit: h | format: bare number

// below: answered compounds
STRUCTURE NOTATION	VALUE UNIT	RECORDED VALUE
CC(=O)N(CCN1CCOCC1)c1ccc(OC2CCN(C3CCC3)CC2)cc1F	h	3.3
O=C(CN1CCC(O)CC1)Nc1ccc(OC2CCN(C3CCC3)CC2)cc1	h	17

--- query ---
Param item = Cl.Cl.O=C(CN1CCOCC1)Nc1ccc(OC2CCN(C3CCC3)CC2)cc1F ; retrieve measured half-life.
0.56
